Quick list: cell viability per entry.
# System: HL-60
# Procedure text: cell viability (% survival relative to DMSO control); higher = less cytotoxic
# Condition description: 0.01 µM; 72 h; co-treatment: AZD3965 100 nM
Number in %, nothing else.

compound="CCOC(=O)c1sc(NC(=O)c2ccco2)c(SC#N)c1C [CBR-5884]" outcome_measure="cell viability" unit_abbreviation=% observed_value=103
compound="CC/C=C\\C[C@H]1C(=O)CC[C@@H]1CC(=O)OC [methyl jasmonate]" outcome_measure="cell viability" unit_abbreviation=% observed_value=106

// below: cell viability requested for another compound
response.value for COC(=O)c1cc2c(C(F)(F)F)cc(-c3ccccc3)cc2n1O [NHI-2] (field: cell viability) = 90.5
